- Test system: Saccharomyces cerevisiae
- protocol_text: protein stability index of tFT-peptide fusion (C-terminal peptide) (PSI (0-1 scale)); higher = more stable (slower turnover)
- measurement_setup: genetic background: das1 deletion; temperature: 30 C
protein stability index vs 0.4: at or above is label 1, below is label 0.

macromolecule_sequence: LSRFGSTCPSGL
assigned_category: label 1
--
macromolecule_sequence: SSGSLLLPRFLT
assigned_category: label 1
--
macromolecule_sequence: LVCSRFLFAFHC
assigned_category: label 1
--
macromolecule_sequence: PGWALLQLVFLK
assigned_category: label 0
--
macromolecule_sequence: LQSYVSRLVRLS
assigned_category: label 1
--
macromolecule_sequence: CLLSRYRVFFLG
assigned_category: label 1
--
macromolecule_sequence: SARSYLTERLLA
assigned_category: label 1
--
macromolecule_sequence: FLSLPLFILFLS
assigned_category: label 0
--
macromolecule_sequence: AGGGGRFWVCVG
assigned_category: label 1
--
macromolecule_sequence: CFSYLLIVLLFP
assigned_category: label 0
--
macromolecule_sequence: LIVFSGFLFLLS
assigned_category: label 0
--
macromolecule_sequence: YIFLLRFFFFFS
assigned_category: label 0
--
macromolecule_sequence: LLLFTPFYLLLR
assigned_category: label 0

###

- System: Saccharomyces cerevisiae
- protocol_text: protein stability index of tFT-peptide fusion in wild type (PSI (0-1 scale)); higher = more stable (slower turnover)
- measurement_setup: genetic background: wild type
protein stability index for assorted sequences

macromolecule_sequence: CLVSLPILSFFR
test_system: Saccharomyces cerevisiae
protein stability index: 0.581

macromolecule_sequence: AITLPMCPLVLR
test_system: Saccharomyces cerevisiae
protein stability index: 0.233

macromolecule_sequence: CLVSLPILLFFQ
test_system: Saccharomyces cerevisiae
protein stability index: 0.313

macromolecule_sequence: PSLAASVWRVVG
test_system: Saccharomyces cerevisiae
protein stability index: 0.162

macromolecule_sequence: AITLPMCFLLLR
test_system: Saccharomyces cerevisiae
protein stability index: 0.0902

macromolecule_sequence: RLIQPLAVQFLN
test_system: Saccharomyces cerevisiae
protein stability index: 0.0616

macromolecule_sequence: CLVSLHILLFFR
test_system: Saccharomyces cerevisiae
protein stability index: 0.144

macromolecule_sequence: CTSCGSKFRTNN
test_system: Saccharomyces cerevisiae
protein stability index: 0.549

macromolecule_sequence: PDKRNHLIKLLNF
test_system: Saccharomyces cerevisiae
protein stability index: 0.176

macromolecule_sequence: LVVYLSCVACINC
test_system: Saccharomyces cerevisiae
protein stability index: 0.0649

###

- System: Saccharomyces cerevisiae
- protocol_text: protein stability index of tFT-peptide fusion (C-terminal peptide) (PSI (0-1 scale)); higher = more stable (slower turnover)
- measurement_setup: genetic background: das1 deletion; temperature: 30 C
protein stability index for assorted sequences

macromolecule_sequence: TASQILKFEGRI [GRE2 C-terminal 12 aa]
protein stability index: 0.718

macromolecule_sequence: KYNNYFKIPPKY [BI3 C-terminal 12 aa]
protein stability index: 0.688

macromolecule_sequence: EEVLEETKEKVE [PRT1 C-terminal 12 aa]
protein stability index: 0.689

macromolecule_sequence: ETAENIAKYIRN [NPA3 C-terminal 12 aa]
protein stability index: 0.682

macromolecule_sequence: KTGKSSVIDLQR [GCN2 C-terminal 12 aa]
protein stability index: 0.712

macromolecule_sequence: VESTRETGGCNC [YPT53 C-terminal 12 aa]
protein stability index: 0.692

macromolecule_sequence: QAKEVFDKMQKE [FMP23 C-terminal 12 aa]
protein stability index: 0.713

macromolecule_sequence: DGWIPTRTDDVK [TAD1 C-terminal 12 aa]
protein stability index: 0.703

macromolecule_sequence: SYRLGKNAAEGK [CAP1 C-terminal 12 aa]
protein stability index: 0.685

macromolecule_sequence: SGGVLDSGDVSL [YGR182C C-terminal 12 aa]
protein stability index: 0.684

macromolecule_sequence: QDMMSGFLGGSK [GET4 C-terminal 12 aa]
protein stability index: 0.691

macromolecule_sequence: NTSGQKPNEYNY [APA1 C-terminal 12 aa]
protein stability index: 0.705

macromolecule_sequence: RKSTRSDNPHEA [CBF1 C-terminal 12 aa]
protein stability index: 0.699

macromolecule_sequence: KKGRQERKLANR [PPZ2 C-terminal 12 aa]
protein stability index: 0.689

macromolecule_sequence: DEQKHNENENSR [RPO21 C-terminal 12 aa]
protein stability index: 0.693

macromolecule_sequence: KQKKQQAQPLRK [VRG4 C-terminal 12 aa]
protein stability index: 0.704
